- Test system: recombinant NL4-3 virus (Renilla luciferase in nef, Gag P373S; NLRluc) in MT-2 cells
- protocol.summary: whole plant or invertebrate
- Assay type: cell-based, HIV
- experimental.context: Renilla, NL43, luciferase activity in cells infected for 4-5 days with NLRluc recombinants, serial dilutions of inhibitor; class symbols (key in Table 1); read-out: EC50
The molecules listed here are annotated with their EC50.
measured.quantity: EC50

C=C(C)[C@@H]1CC[C@]2(NCCN3CCN(C(C)=O)CC3)CC[C@]3(C)[C@H](CC[C@@H]4[C@@]5(C)CC=C(c6ccc(C(=O)O)cc6)C(C)(C)[C@@H]5CC[C@]43C)[C@@H]12 [Example B24]
< 100 nM
C=C(C)[C@@H]1CC[C@]2(NCCc3ccncc3)CC[C@]3(C)[C@H](CC[C@@H]4[C@@]5(C)CC=C(c6ccc(C(=O)O)cc6)C(C)(C)[C@@H]5CC[C@]43C)[C@@H]12 [Example 166]
< 100 nM
